tested on: Malme-3M; test: NCI tumour cell line growth inhibition, 48 h
Calls of active or inactive are those of the source. No stated cut-off is given here; in the data, active = GI50 up to about 1.1 µM and inactive = higher.
Returns: one label drawn from active, inactive

Status in this test for Cc1ccc(C2=Nc3ccccc3SC(c3cccc4c3OCO4)C2)cc1 (centres undefined) ?
inactive

Identify the outcome logged in this assay for the molecule shown: O=C(Nc1ccccc1Cl)c1cc(S(=O)(=O)Nc2n[nH]c(=O)n2-c2ccccc2)c(S)cc1Cl
inactive

What was the test verdict on CCOC(=O)C1(c2ccccc2)CCCNCC1 (centres undefined) ?
inactive

Which outcome was entered for the molecule CC(C)=CCc1c2c(c3occ(-c4ccc(O)cc4)c(=O)c3c1O)CC(C(C)(C)O)O2 (centres undefined) in this test?
inactive

GET /call?item= COc1ccc(C(=O)C(C(=O)C(=O)Nc2ccc(Cl)c(Cl)c2)c2ccc(OC)cc2)cc1 (centres undefined) returns the recorded outcome of this test.
inactive

How did this test come out for Clc1sc(Cl)c2c1[C@H](Br)C[C@@H]2Cl ?
inactive

Give the logged outcome of this assay for the following molecule: CCOC(=O)c1ccc(-n2nnc(C(N)=O)c2O)cc1
inactive

Any idea what this test logged for N#CC(CCN1CCC(Nc2ccccc2)(c2nnnn2C2CCCCC2)CC1)(c1ccccc1)c1ccccc1 ?
inactive

Record lookup: outcome of this test for CCOC(=O)C1=C(NC(C)(C)C)OC/C1=N\NC(=O)Cc1ccccc1 ?
inactive

Given COc1cc2c(cc1OC)C(=O)C1(C2)[C@H](c2ccccc2)C2C(=O)c3cc(OC)c(OC)cc3C2[C@H]1c1ccccc1 (some centres undefined) , state the outcome it received in this test.
inactive

Please let me know the test result on file for O=C(/C=C/c1ccccc1)CCN1CCCCC1 .
inactive

Outcome? COc1cc(/C=C/c2cc(/C=C/c3ccc(O)c(OC)c3)oc(=O)c2)ccc1O
inactive

Hi team, can someone confirm the assay call for CC(=O)OCC1OC(OC2C(CSC3OC(COC(C)=O)C(OC(C)=O)C(OC(C)=O)C3OC(C)=O)OC(OC(C)=O)C(OC(C)=O)C2OC(C)=O)C(OC(C)=O)C(OC(C)=O)C1OC(C)=O (centres undefined) ?
inactive

For this molecule, state the assay outcome: COc1ccc(-c2c(-c3ccccc3)c(C)c3ccccn23)cc1
inactive

Dear colleague, could you share the recorded outcome for Cc1ccc(S(=O)(=O)CN2C(=O)C(c3ccccc3)(c3ccccc3)C23OC(c2ccc(Cl)cc2)=CC3=O)cc1 (centres undefined) when you have a moment?
inactive

Test call, this molecule: Cc1n[nH]c(=O)n1-n1cccc1
inactive

Which result was noted for this molecule in the test: C=C(/C=C/C=C(/CCC=C(C)C)COC(C)=O)[C@@H]1CC[C@]2([C@H](CCCO)/C(=C(/C)C=O)CC[C@]2(C)O)[C@@H]1O
active

Given O=S(O)CCCSSSCCCS(=O)O , state the outcome it received in this test.
inactive

What was the test verdict on Fc1ccc(C(OCCN2CC3CC2CN3CCCc2ccccc2)c2ccc(F)cc2)cc1 (centres undefined) ?
inactive

* * *

tested on: SK-OV-3; test: NCI tumour cell line growth inhibition, 48 h
Active and inactive are the calls of the source. Rule as the data show it: active = GI50 up to about 1.1 µM and inactive = higher.
The categories you may choose from are active, inactive

How was CN(C)CCCn1c(-c2ccc(Br)cc2)cs/c1=N\c1ccccc1 classified in this test?
inactive

Tell me the assay call for O=C1OCC=C1COC1OC(CO)C(O)C(O)C1O (stereo unspecified) please.
inactive

Short answer needed: outcome of this test for CN(C)C(=S)/N=c1\ssc(=S)n1-c1ccccc1 ?
inactive

Could you please tell me the result logged for CCOC(=O)c1ccc(-n2nnc(C(N)=O)c2O)cc1 in this assay?
inactive

Per the assay record, what outcome was assigned to O=C(Cn1c(C(=O)/C=C/c2ccc(Cl)c(Cl)c2)nc2ccccc21)c1ccccc1 ?
inactive

Please share the test call associated with c1ccc(-c2cc(-c3cccs3)c(-c3cccs3)s2)cc1 .
inactive

State the result this test recorded for COc1ccc(C2C3CCc4ccccc4C3=NN2S(=O)(=O)c2cccc(C(=O)O)c2OC)cc1 (stereo unspecified) .
inactive

Which outcome was entered for the compound O=C1CCCC2=C1CC1=C(CCCC1=O)N2c1cccc([N+](=O)[O-])c1 in this test?
inactive

Outcome? CN1C(=O)CSC1=S
inactive

Hi, do you know how O=[N+]([O-])c1ccc(NSc2ccccc2)cc1 came out in this test?
inactive

Dear all, I need the recorded test outcome for NC(=S)N/N=C1\C(=O)N(c2cccc([N+](=O)[O-])c2)C(=O)C1C(=O)Nc1cccc([N+](=O)[O-])c1 (stereo unspecified) , thank you.
inactive

What outcome does the record of this test show for C=CCNC1=C2C[C@@H](C)C[C@@H](OC)[C@H](OC(=O)CCN)[C@H](C)/C=C(\C)[C@@H](OC(N)=O)[C@H](OC)/C=C\C=C(/C)C(=O)NC(=CC1=O)C2=O ?
inactive

In this assay, the call recorded for O=C(Oc1cncc(Cl)c1)c1cc2ccccc2sc1=O was what?
inactive

Name the outcome recorded for CC(C)(C)CC(C)(C)c1ccc(OCCOCC[N+](C)(C)Cc2ccccc2)cc1 [BENZETHONIUM CHLORIDE] in the assay.
inactive

Can you look up the reported call for CCOc1ccccc1NC(=O)C(=O)C(/C(=N/N)C(=O)OC)c1nc2ccc([N+](=O)[O-])cc2nc1O (stereo unspecified) for me?
inactive

Entry CNC(=O)c1cccc2c(Nc3ccc(NS(C)(=O)=O)cc3OC)c3cccc(C)c3nc12 : call = ?
active

Answer briefly: the call reported for CCCCOC(=O)Nc1ccc(S(=O)(=O)Nc2c(Cl)cccc2Cl)cc1 in this assay.
inactive

Check the results log: what was the call for O=c1c2cnccc2cc2c3ccccc3ccn12 ?
inactive

Which outcome did this test record for the compound Cc1ccc(NC(=O)CCC(=O)C2CC(=O)CCC2=O)cc1C (stereo unspecified) ?
inactive

State the result this test recorded for CCOC(=O)C(=O)Nc1c(C(C)C)cccc1C(C)C .
inactive

For OCn1nc2c(C3OCCO3)cc3ccccc3n2c1=S , what call appears in the results of this test?
inactive
